# experimentalSystem: Human Myelin Basic Protein (Homo sapiens, UniProt P02686)
# Sequence (P02686 134-304): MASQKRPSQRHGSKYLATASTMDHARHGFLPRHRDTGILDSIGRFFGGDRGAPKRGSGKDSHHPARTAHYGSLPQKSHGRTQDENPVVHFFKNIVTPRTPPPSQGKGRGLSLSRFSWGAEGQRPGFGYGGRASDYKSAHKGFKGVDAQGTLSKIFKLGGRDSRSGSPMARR
# assaySummary: Phage display library screening (Example 2, Python script analysis), binding to Human Myelin Basic Protein
# Design: Enzo 200-606-M001 from human; purchased Enzo 200-606-M001; host or cells: human brain (tissue-derived)
# conditionParameters: R3 Myelin Basic Protein; combined unique sequence count, Python/R script analysis
Quick reference for Count among some substances

substance | Count
WTYHPTT (R3 Myelin Basic Protein-binding peptide) | 6
HLLKTHS (R3 Myelin Basic Protein-binding peptide) | 7
AQLGAFR (R3 Myelin Basic Protein-binding peptide) | 6

Challenge: Determine from records and report Count for SVGLPTK (R3 Myelin Basic Protein-binding peptide)
Response given: 6

Challenge: Return reported Count. Input substance: VIRTAAM (R3 Myelin Basic Protein-binding peptide)
Response given: 6

Challenge: Give the value of Count reported for the following: TLLTALT (R3 Myelin Basic Protein-binding peptide)
Response given: 7

Challenge: Return Count (reported value) for this substance: VRGTPNH (R3 Myelin Basic Protein-binding peptide)
Response given: 6

Challenge: Tell us which Count value is on record for SAVLMPP (R3 Myelin Basic Protein-binding peptide)
Response given: 6
